B1: FAM107A (parent)
chain: HRRGLGVDSKPELQRVLEHRRRNQ

# Variants of: B1
# protocol-summary: protein stability index of a GFP-peptide fusion (GPS, HEK-293T) (PSI 1-6); higher = more stable;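 also: lentivirally expressed fusions sorted by FACS into six bins by GFP to DsRed ratio, PSI derived from sequencing read proportions per bin multiplied by bin number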
# particulars: c terminus: a fixed tail appended
observation-type: protein stability index
One number for each entry.

Consider the reported protein stability index for these variants:
mutation-label	protein stability index
G4F	4.72
R21Q	4.38
H19N	4.93

// for each variant below, give its protein stability index
1. H1R
2. L13V
3. V16Q
4. L13E

Response:
1: 4.55; 2: 3.94; 3: 5.45; 4: 5.77

// for each variant below, give its protein stability index
1. K10N
2. Q14M

Response:
[4.48, 2.81]

// for each variant below, give its protein stability index
1. R2K
2. R2F
3. G4Q
4. R3L

Response:
1. 3.05
2. 4.86
3. 4.33
4. 4.14

// for each variant below, give its protein stability index
1. R21E
2. R2I

Response:
[5.04, 3.4]
